# System: HT-29
# measurement protocol: NCI tumour cell line growth inhibition, 48 h
Activity calls are given as the source filed them. Rule as the data show it: active = GI50 up to about 1.1 µM and inactive = higher.
Outcomes: YES = active, NO = inactive

compound: COC(=O)/C=C\C(C#N)(C#N)/N=C/c1ccc(C)s1
group: NO

compound: [O-]c1c[n+](CCCC[n+]2cc([O-])on2)no1
group: NO

compound: Nc1ncnc2c1ncn2CC(O)C(=O)O (centres undefined)
group: NO

compound: CCCCC1=C(C(=O)N2CCOCC2)C2(OCCO2)C1Cl (centres undefined)
group: NO

compound: O=C(OCC1CO1)c1cccs1 (centres undefined)
group: NO

compound: CCCCCCCCCCCCNC(C)=O
group: NO

compound: COC(=O)CCCCC/C(=C\C(=O)C(Cl)(Cl)Cl)OC
group: NO

compound: Clc1ccc(-c2c(C3=NCCCN3)nnn2-c2ccc(Cl)cc2)cc1
group: NO

compound: CCOC(=O)c1c(C)c2c(n1C)CCc1c[nH]nc1-2
group: NO

compound: CCOC(=O)c1nc2ccc([N+](=O)[O-])cc2c2c1CCO2
group: NO

compound: Cn1c(=O)c2nc(Nc3ccccc3)[nH]c2n(C)c1=O
group: NO

compound: Cc1ccc(S[C@@H](C)[C@@](O)(C(N)=O)c2ccccc2)cc1
group: NO

compound: CSC(SC)=C(C(=O)O)P(=O)(O)O
group: NO

compound: CC(=O)N(C(C)=O)n1c(Cc2ccc(Cl)cc2)n[nH]c1=O
group: NO

compound: COc1ccc(C=O)cc1OS(=O)(=O)C(F)(F)C(F)(F)C(F)(F)C(F)(F)F
group: NO

compound: c1ccc(C2=NN3CN(N2)c2ccccc2OCCCOc2ccccc23)cc1
group: NO

compound: c1ccc(OCc2nnc3n2N=C(c2ccccc2)CS3)cc1
group: NO

compound: CC(C)(C)c1cc(C(=O)O)c2c(c1)C(=O)OC2(c1ccccc1)c1ccccc1C(=O)O (centres undefined)
group: NO

compound: Cc1cn(C2CC(ON3C(=O)c4ccccc4C3=O)C(CO)O2)c(=O)[nH]c1=O (centres undefined)
group: NO

compound: N#CC(C#N)=Cc1ccc2c(c1)OC(Cl)O2 (centres undefined)
group: NO

compound: COC1/C=C/C(C)C(C(C)C(OC)C(C)CCC(=O)C(C)C(CC(=O)O)OC)OC(=O)/C=C/C=C(\C)CC(OC)C(OC)C2=CC(=O)O[C@@H](C(C)C(OC)CC(OC)/C=C/C(C)C(O)C1)[C@H]2O (some centres undefined)
group: YES

compound: COC(=O)c1c2c(cc3c1CC1(Cc4cc5c(cc4C1)CCCC5)C3)CCCC2
group: NO

compound: COc1ccc(/C=C/C(=O)c2c(-c3ccccc3)nn(C)c(=O)c2N2CCOCC2)cc1
group: NO

compound: CC[C@@]12N=C(N(C)C)C[C@]1(O)ON=C2C
group: NO

compound: CCOC(=O)c1cc(C2=CCNC2=O)c(-c2cc(C)no2)[nH]1
group: NO

compound: O=C1c2cccc3cccc(c23)C2NCCCN12 (centres undefined)
group: NO

compound: Cc1ccc(-c2cc(=S)n(-c3ccccc3)c3[nH]c(=S)n(-c4ccccc4)c(=N)c23)cc1
group: NO

compound: CC1=NN(C(=O)CC(=O)Nc2cccc(Cl)c2)C(=O)C1/N=N/c1ccc(S(N)(=O)=O)cc1 (centres undefined)
group: NO

compound: C/C(=C/CNc1ncnc2c1ncn2CCC#N)CO
group: NO

compound: CC(C)C(NCc1c2ccccc2nc2ccccc12)C(=O)O (centres undefined)
group: NO

compound: COC(=O)/C(=C(/C)c1ccco1)P(=O)(OC)OC
group: NO

compound: C1=N/CCNCCNCC/N=C/c2ccccc2OCc2cccc(n2)COc2ccccc2/1
group: NO

compound: N=C(N)C1CN(CC=O)C(=O)NC1=O (centres undefined)
group: NO

compound: CSc1ccc2c(cc1=O)[C@@H](NC(=O)c1ccc([N+](=O)[O-])cc1)CCc1cc(O)c(O)c(O)c1-2
group: NO

compound: CCc1ccccc1NC(=O)C1=C(C)NC(C)=C(C(=O)Nc2ccccc2CC)C1c1ccc(NC(C)=O)cc1
group: NO

compound: CN1Cc2ccccc2/C=C\c2ccccc21
group: NO

compound: NC(=S)NS(=O)(=O)c1ccc(F)cc1F
group: NO

compound: C=C1C(=O)O[C@@H]2[C@@H]3O[C@@H](C[C@@H]13)[C@](C)(O)CC/C=C(\C)CCC[C@@H]2C
group: NO

compound: COc1ccc(Oc2ccccc2N)cc1
group: NO

compound: O=C1Nc2nnc(S)n2NC12c1ccccc1-c1ccccc12
group: NO

compound: CC1(C)OC2[C@@H](CO[C@@]3([C@H]4OC(C)(C)O[C@@H]4CO)OC(C)(C)O[C@@H]23)O1 (some centres undefined)
group: NO

compound: C/C(=N/OCCC(=O)O)C1CC1
group: NO

compound: CCSc1nc2cccc([N+](=O)[O-])c2n1CC
group: NO

compound: O=c1[nH]c(=O)n(CCOCP(=O)(O)O)nc1Br
group: NO
